Study system: Gal6S(b1-4)Glc6S
Assay name: glycan array binding signal (z-score within array); higher = stronger binding
Condition parameters: glycan notation: IUPAC condensed, linker removed
The sample as a whole holds a higher share of the strongest signals than the screen did.
Metric: glycan array binding signal (z-score)
Number only, please.

Binder	glycan array binding signal (z-score)
Pwp2 (Candida glabrata) (protein) MGSSHHHHHHSSGLVPRGSHMASKNPVELNNVCTFPNDYGRIPGFTVLVGRLGLLISASDYKELLRYPGAFLIATQDTMTTSPNFELTGFPFFTGLYGLTVFPLDLLVELRGYFVPPNSGQYTFTLSDSDDAAIIFLGNPSAFPCGDLQNWPKPSEEDITVTDHLFPSRTLYLIEGVAYPMRIAYYNGIGAGRLNAAFIDPSGTRHTNWEGYIWQYDPCSTCTYS	-0.419

Documented glycan array binding signal (z-score) of FimA-N2 (Actinomyces oris) (protein) MHHHHHHSSGVDLGTENLYFQSNAWIYDVNVYPKNEAIDVDKTIQAQKLNGYGVGSLIKFPVESTAPTLDAKSFYKYFQLKDTLDERLSEVTATDVSLEGTPLQPTDYKVETKQQTVTVTFTAEGLKKIKAAPGKKVSAVFQGKVTKAGNGAITNRAQVISDTLYAEQPPTPETPPTDPENPPTSDEVISRWGDLSIKKVDTHQQGQTKA : -0.257

Data provenance: the supplement of paper PMC8728848
